From: the supplement of paper PMC11208160

Below, each entry is listed alongside its reported recombinant UMI read abundance (log10).
# method_description: recombinant UMI read abundance after kanamycin selection (control-corrected) (log10(CPM+1)); higher = more efficient recombination; extreme values may be limits of the assay; sequences stand for … in AGTGCAGAGAAAATCGGCCAGTTTTCTCTGCCTGCAGTCCGCATGCCGTGGGACCCCTTGGGTTCTAACCTGTTGCCTAGATTTATGCAGCGGACTGCCTTTCTCCCAAAGTGATAAACCGG…AGGTTGGTTTCACT; site = the 11-nt donor
Please state the value as a number alone, without comment.

{"sequence_data": "ACACGAACATGGACCGGTTTTCCCGGTAATCCGTATTTGAC (site ACACGAACTGT)", "measurement_type": "recombinant UMI read abundance (log10)", "endpoint_result": 2.62}
{"sequence_data": "ACACGACCATGGACCGGTTTTCCCGGTAATCCGTATTTGTC (site ACACGACCTGA)", "measurement_type": "recombinant UMI read abundance (log10)", "endpoint_result": 0}
{"sequence_data": "CGATCATCATGGACCGGTTTTCCCGGTAATCCGTATTTGCT (site AGATCATCTTG)", "measurement_type": "recombinant UMI read abundance (log10)", "endpoint_result": 0}
{"sequence_data": "AATTATGCATGGACCGGTTTTCCCGGTAATCCGTATTTGGA (site AATTTTGCTTC)", "measurement_type": "recombinant UMI read abundance (log10)", "endpoint_result": 0.00678}
{"sequence_data": "TAGCTTGCATGGACCGGTTTTCCCGGTAATCCGTATTTGAA (site TAGCTGGCTTT)", "measurement_type": "recombinant UMI read abundance (log10)", "endpoint_result": 0.02}

Task: Report measured recombinant UMI read abundance (log10); entry is CCAATCACATGGACCGGTTTTCCCGGTAATCCGTATTTGTT (site CCAATCACTAA)
Result: 0.84

----------
# method_description: recombinant barcode read abundance after kanamycin selection (control-corrected) (log10(CPM+1)); higher = more efficient recombination; sequences stand for … in AGTGCAGAGAAAATCGGCCAGTTTTCTCTGCCTGCAGTCCGCATGCCGT…AGATTTATGCAGCGGACTGCCTTTCTCCCAAAGTGATAAACCGGACAGTATCATGGACCGGTTTTCCCGGTAATCCGTATTTGCAAGGTTGGTTTCACT; site = the 11-nt target
Binary classification by recombinant barcode read abundance (log10), with 0.5 as an inclusive lower bound for satisfied; all other cases are not satisfied.

Example entries and their recorded answers appear below.
{"sequence_data": "GAGGTAACTTGGGTTCTAACCTGTTGCCT (site GACGTAACTAG)", "cat": "satisfied"}
{"sequence_data": "CTTACTACTTGGGTTCTAACCTGTTGCCT (site ATCACTACTAG)", "cat": "not satisfied"}
{"sequence_data": "ATCGGGCCTTGGGTTCTAACCTGTTGCCT (site CTCGGGCCTAG)", "cat": "not satisfied"}
{"sequence_data": "AGTAAGTCTTGGGTTCTAACCTGTTGCCT (site ACTAAGTCTAG)", "cat": "not satisfied"}
{"sequence_data": "AGGAGCTCTTGGGTTCTAACCTGTTGCTA (site AGGAGCTCTTA)", "cat": "satisfied"}

Task: Decide: is the reported value of recombinant barcode read abundance (log10) for CCTGGAGCTTGGGTTCTAACCTGTTGCAT (site CCTGGAGCTAT) equal to or greater than 0.5?
Result: satisfied

Task: Check the entry TATAACACTTGGGTTCTAACCTGTTGCCG (site TATAACACTCG) : does recombinant barcode read abundance (log10) equal or exceed 0.5?
Result: not satisfied

Task: Hello, I need to know if GCCAACCCTTGGGTTCTAACCTGTTGCAT (site GCCAACCCTAA) has measured recombinant barcode read abundance (log10) not below 0.5. Thanks!
Result: not satisfied

----------
# method_description: recombinant barcode read abundance after kanamycin selection (control-corrected) (log10(CPM+1)); higher = more efficient recombination; sequences stand for … in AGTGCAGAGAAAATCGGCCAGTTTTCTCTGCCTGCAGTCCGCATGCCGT…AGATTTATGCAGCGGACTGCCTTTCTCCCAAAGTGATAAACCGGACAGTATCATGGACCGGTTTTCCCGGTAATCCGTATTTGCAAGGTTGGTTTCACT; site = the 11-nt target
Response key: MET means recombinant barcode read abundance (log10) >= 0.4; NOT MET means recombinant barcode read abundance (log10) < 0.4.

{"sequence_data": "CTACTTACTTGGGTTCTAACCTGTTGCCT (site CTAATTACTAG)", "cat": "NOT MET"}
{"sequence_data": "CTACCCTCTTGGGTTCTAACCTGTTGCAT (site CTAGCCTCTAT)", "cat": "NOT MET"}
{"sequence_data": "GTGTATACTTGGGTTCTAACCTGTTGCAT (site TAACTAGCTTA)", "cat": "NOT MET"}
{"sequence_data": "CTAAGAGCTTGGGTTCTAACCTGTTGCCG (site CTAAGAGCTCG)", "cat": "MET"}
{"sequence_data": "CGACCGACTTGGGTTCTAACCTGTTGCAG (site CGACCGACTCT)", "cat": "MET"}

Task: Please check the record TCAGACCCTTGGGTTCTAACCTGTTGCCT (site TAAGACCCTAG) and state if its recombinant barcode read abundance (log10) is at or above 0.4.
Result: MET

Task: In plain terms: is recorded recombinant barcode read abundance (log10) at least 0.4 for TGAATGTCTTGGGTTCTAACCTGTTGCCT (site TGAAAGTCTAG) ?
Result: NOT MET

----------
# method_description: recombinant barcode read abundance after kanamycin selection (control-corrected) (log10(CPM+1)); higher = more efficient recombination; sequences stand for … in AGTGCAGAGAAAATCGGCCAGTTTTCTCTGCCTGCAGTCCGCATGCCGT…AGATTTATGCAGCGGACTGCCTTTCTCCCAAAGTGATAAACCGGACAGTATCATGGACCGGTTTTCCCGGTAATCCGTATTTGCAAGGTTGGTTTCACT; site = the 11-nt target
Decision: recombinant barcode read abundance (log10) >= 0.1 yields Criterion met, all other cases yield Criterion not met.

Please review the following examples before continuing.
{"sequence_data": "GAGGGTCCTTGGGTTCTAACCTGTTGCAT (site GAGGGTCCTAG)", "cat": "Criterion met"}
{"sequence_data": "GGGGTAACTTGGGTTCTAACCTGTTGCCT (site GGGGTAACTAG)", "cat": "Criterion met"}
{"sequence_data": "TTGGTCCCTTGGGTTCTAACCTGTTGCCT (site TTGGTTCCTAG)", "cat": "Criterion met"}

Task: Given CGAGTCCCTTGGGTTCTAACCTGTTGCAG (site CGAGTCCCTCT) , state whether its recombinant barcode read abundance (log10) is at least 0.1.
Result: Criterion met

Task: Say whether CGTCATCCTTGGGTTCTAACCTGTTGCCT (site CGTCATCCTAG) shows recombinant barcode read abundance (log10) of 0.1 or more.
Result: Criterion not met

----------
Entries annotated with measured recombinant barcode read abundance (log10)
# method_description: recombinant barcode read abundance after kanamycin selection (control-corrected) (log10(CPM+1)); higher = more efficient recombination; sequences stand for … in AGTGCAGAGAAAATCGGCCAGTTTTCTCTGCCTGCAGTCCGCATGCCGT…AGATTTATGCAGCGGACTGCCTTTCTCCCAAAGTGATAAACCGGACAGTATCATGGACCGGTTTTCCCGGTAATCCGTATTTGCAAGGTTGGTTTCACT; site = the 11-nt target

{"sequence_data": "CGAAAATCTTGGGTTCTAACCTGTTGCCT (site CGGAAATCTAG)", "endpoint_result": 0.18}
{"sequence_data": "CGACTGACTTGGGTTCTAACCTGTTGCCT (site CGTCTGACTTG)", "endpoint_result": 0.0517}
{"sequence_data": "CGGAATCCTTGGGTTCTAACCTGTTGCGT (site CGGAATCCTAT)", "endpoint_result": 1.19}
{"sequence_data": "TAGGACACTTGGGTTCTAACCTGTTGCGT (site TAGGATACTAC)", "endpoint_result": 0.295}
{"sequence_data": "TTCTGCGCTTGGGTTCTAACCTGTTGCCT (site TTCTGCGCTAG)", "endpoint_result": 1.2}
{"sequence_data": "TATAAAACTTGGGTTCTAACCTGTTGCCT (site TATAAAACTAG)", "endpoint_result": 0.0338}

Task: Give the value of recombinant barcode read abundance (log10) reported for the following: TGAGTACCTTGGGTTCTAACCTGTTGCTT (site TGAGTGCCTAA)
Result: 0.856

Task: Provide only the value of recorded recombinant barcode read abundance (log10) for GACGTAGCTTGGGTTCTAACCTGTTGCCT (site GTCGTAGCTAG)
Result: 0.279

Task: Give the reported value of recombinant barcode read abundance (log10) for this record: GAGTGGCCTTGGGTTCTAACCTGTTGCGG (site GAGTTGCCTCC)
Result: 0.00446

Task: Determine from records and report recombinant barcode read abundance (log10) for CCTAATGCTTGGGTTCTAACCTGTTGCCT (site CCAAAGGCTAG)
Result: 0.0782
